System: 415267-285-R-J2-PDC complex spheroid viability
test: Anticancer human tumor 415267-285-R-J2-PDC patient-derived breast carcinoma cell line growth inhibition [POLQ]
condition.details: second compound 10 µM; first compound 0.0316 µM; stronger effect = lower value
Procedure: Multicellular complex tumor spheroid response to Polymerase (POL) inhibitors (novobiocin, ART-558, RP6685) in combination with a variety of drugs and investigational agents in selected tumor cell lines The POL inhibitors (novobiocin, ART-558, and RP6685) were evaluated both individually and in combination with standard of care and investigational anticancer small molecules within a complex spheroid model of solid tumors. . […]
# Lookup of reported viability, T/C keyed by entry

// assay 415267-285-R-J2-PDC complex spheroid viability, entry C=CCn1c(=O)c2cnc(Nc3ccc(N4CCN(C)CC4)cc3)nc2n1-c1cccc(C(C)(C)O)n1 + Cc1cccc(N(C)C(=O)C2C(O)CCN2c2nc(C)cc(C(F)(F)F)c2C#N)c1 , viability, T/C value = 122%

// assay 415267-285-R-J2-PDC complex spheroid viability, entry COc1cc2cc(C(=O)CCC(=O)O)sc2cc1OC + Nc1ccc(C#CCN(C(=O)Cc2ncc(C(F)(F)F)cc2C(F)(F)F)c2ccc(F)cc2)nn1 , viability, T/C value = 101%

// assay 415267-285-R-J2-PDC complex spheroid viability, entry COc1ccc([C@@H](O)c2cc(-c3ncnc4cc(N5CCOCC5)ccc34)c(F)cc2Cl)nn1 + Nc1ccc(C#CCN(C(=O)Cc2ncc(C(F)(F)F)cc2C(F)(F)F)c2ccc(F)cc2)nn1 , viability, T/C value = 105%

Continuing:
// assay 415267-285-R-J2-PDC complex spheroid viability, entry CC1COCCN1c1cc(C2(O)CC3CCC(C2)O3)c2cnn(-c3ccn[nH]3)c2n1 (stereo unspecified) + COC1C(OC(N)=O)C(O)C(Oc2ccc3c(O)c(NC(=O)c4ccc(O)c(CC=C(C)C)c4)c(=O)oc3c2C)OC1(C)C , viability, T/C value = 29.5%

// assay 415267-285-R-J2-PDC complex spheroid viability, entry Cn1ncnc1[C@H]1c2n[nH]c(=O)c3cc(F)cc(c23)N[C@@H]1c1ccc(F)cc1 + Nc1ccc(C#CCN(C(=O)Cc2ncc(C(F)(F)F)cc2C(F)(F)F)c2ccc(F)cc2)nn1 , viability, T/C value = 101%

// assay 415267-285-R-J2-PDC complex spheroid viability, entry CC1COCCN1c1cc(-c2ccnn2C)c2ccnc(-c3ccn[nH]3)c2n1 (stereo unspecified) + COC1C(OC(N)=O)C(O)C(Oc2ccc3c(O)c(NC(=O)c4ccc(O)c(CC=C(C)C)c4)c(=O)oc3c2C)OC1(C)C , viability, T/C value = 61.3%

// assay 415267-285-R-J2-PDC complex spheroid viability, entry COc1cc2cc(C(=O)CCC(=O)O)sc2cc1OC + COC1C(OC(N)=O)C(O)C(Oc2ccc3c(O)c(NC(=O)c4ccc(O)c(CC=C(C)C)c4)c(=O)oc3c2C)OC1(C)C , viability, T/C value = 101%

###

Tested on: 415267-285-R-J2-PDC complex spheroid viability
test: Anticancer human tumor 415267-285-R-J2-PDC cell line growth inhibition [POLQ]; active means viability on the fitted dose curve at most 10% of control; inactive means the rest;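 note: luminescence used as stand-in measure of viable cells; spheroids exposed to compounds for one week before readout; 100% = DMSO vehicle control viability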
condition.details: second compound 1 µM; first compound 10 µM
Pick one: active, inactive

Consider the worked cases shown below.
Ask: Test call for this molecule, please: O=c1[nH]cc(F)c(=O)[nH]1 + COC1C(OC(N)=O)C(O)C(Oc2ccc3c(O)c(NC(=O)c4ccc(O)c(CC=C(C)C)c4)c(=O)oc3c2C)OC1(C)C
Result: inactive

Ask: Test call for this molecule, please: CNCc1ccc(-c2[nH]c3cc(F)cc4c3c2CCNC4=O)cc1 + Nc1ccc(C#CCN(C(=O)Cc2ncc(C(F)(F)F)cc2C(F)(F)F)c2ccc(F)cc2)nn1
Result: inactive

Ask: Test call for this molecule, please: C#Cc1c(F)ccc2cc(O)cc(-c3ncc4c(N5CC6CCC(C5)N6)nc(OCC56CCCN5CC(F)C6)nc4c3F)c12 (stereo not given) + Cc1cccc(N(C)C(=O)C2C(O)CCN2c2nc(C)cc(C(F)(F)F)c2C#N)c1
Result: inactive

Ask: Test call for this molecule, please: COc1cccc2c1C(=O)c1c(O)c3c(c(O)c1C2=O)CC(O)(C(=O)CO)CC3OC1CC(N)C(O)C(C)O1 (stereo not given) + COC1C(OC(N)=O)C(O)C(Oc2ccc3c(O)c(NC(=O)c4ccc(O)c(CC=C(C)C)c4)c(=O)oc3c2C)OC1(C)C
Result: active

Continuing:
Ask: Test call for this molecule, please: CC(C)n1c(=O)n(C)c2cnc3cc(F)c(-c4ccc(OCCCN5CCCCC5)nc4)cc3c21 + Nc1ccc(C#CCN(C(=O)Cc2ncc(C(F)(F)F)cc2C(F)(F)F)c2ccc(F)cc2)nn1
Result: inactive

###

System: 415267-285-R-J2-PDC complex spheroid viability
test: Anticancer human tumor 415267-285-R-J2-PDC cell line growth inhibition [POLQ]; active = viability on the fitted dose curve at most 10% of control; inactive = the rest;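 note: luminescence used as stand-in measure of viable cells; spheroids exposed to compounds for one week before readout; 100% = DMSO vehicle control viability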
condition.details: second compound 0.0316 µM; first compound 1 µM
Description: Multicellular complex tumor spheroid response to Polymerase (POL) inhibitors (novobiocin, ART-558, RP6685) in combination with a variety of drugs and investigational agents in selected tumor cell lines The POL inhibitors (novobiocin, ART-558, and RP6685) were evaluated both individually and in combination with standard of care and investigational anticancer small molecules within a complex spheroid model of solid tumors. . […]
Pick one: YES (active), NO (inactive)

Ask: Test call for this compound, please: COc1cc2cc(C(=O)CCC(=O)O)sc2cc1OC + COC1C(OC(N)=O)C(O)C(Oc2ccc3c(O)c(NC(=O)c4ccc(O)c(CC=C(C)C)c4)c(=O)oc3c2C)OC1(C)C
Result: NO

Ask: Test call for this compound, please: CNCc1ccc(-c2[nH]c3cc(F)cc4c3c2CCNC4=O)cc1 + COC1C(OC(N)=O)C(O)C(Oc2ccc3c(O)c(NC(=O)c4ccc(O)c(CC=C(C)C)c4)c(=O)oc3c2C)OC1(C)C
Result: NO

Okay, now this compound:
Ask: Test call for this compound, please: CCc1c2c(nc3ccc(O)cc13)-c1cc3c(c(=O)n1C2)COC(=O)[C@]3(O)CC + Cc1cccc(N(C)C(=O)C2C(O)CCN2c2nc(C)cc(C(F)(F)F)c2C#N)c1
Result: YES

###

Tested on: 415267-285-R-J2-PDC complex spheroid viability
test: Anticancer human tumor 415267-285-R-J2-PDC cell line growth inhibition [POLQ]; active = viability on the fitted dose curve at most 10% of control; inactive = the rest;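 note: luminescence used as stand-in measure of viable cells; spheroids exposed to compounds for one week before readout; 100% = DMSO vehicle control viability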
condition.details: second compound 10 µM; first compound 0.1 µM
Pick one: Y (active), N (inactive)

Ask: Test call for this compound, please: CC(C)n1c(=O)n(C)c2cnc3cc(F)c(-c4ccc(OCCCN5CCCCC5)nc4)cc3c21 + Cc1cccc(N(C)C(=O)C2C(O)CCN2c2nc(C)cc(C(F)(F)F)c2C#N)c1
Result: N

Ask: Test call for this compound, please: COc1cccc2c1C(=O)c1c(O)c3c(c(O)c1C2=O)CC(O)(C(=O)CO)CC3OC1CC(N)C(O)C(C)O1 (stereo not given) + Nc1ccc(C#CCN(C(=O)Cc2ncc(C(F)(F)F)cc2C(F)(F)F)c2ccc(F)cc2)nn1
Result: Y

Ask: Test call for this compound, please: Cn1ncnc1[C@H]1c2n[nH]c(=O)c3cc(F)cc(c23)N[C@@H]1c1ccc(F)cc1 + COC1C(OC(N)=O)C(O)C(Oc2ccc3c(O)c(NC(=O)c4ccc(O)c(CC=C(C)C)c4)c(=O)oc3c2C)OC1(C)C
Result: N

Continuing:
Ask: Test call for this compound, please: COc1cc(C2c3cc4c(cc3C(OC3OC5COC(C)OC5C(O)C3O)C3COC(=O)C23)OCO4)cc(OC)c1O (stereo not given) + COC1C(OC(N)=O)C(O)C(Oc2ccc3c(O)c(NC(=O)c4ccc(O)c(CC=C(C)C)c4)c(=O)oc3c2C)OC1(C)C
Result: N

Ask: Test call for this compound, please: O=c1[nH]cc(F)c(=O)[nH]1 + COC1C(OC(N)=O)C(O)C(Oc2ccc3c(O)c(NC(=O)c4ccc(O)c(CC=C(C)C)c4)c(=O)oc3c2C)OC1(C)C
Result: N

###

Test system: 415267-285-R-J2-PDC complex spheroid viability
test: Anticancer human tumor 415267-285-R-J2-PDC cell line growth inhibition [POLQ];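 note: luminescence used as stand-in measure of viable cells; spheroids exposed to compounds for one week before readout; 100% = DMSO vehicle control viability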
condition.details: second compound 0.0316 µM; first compound 3.16 µM; stronger effect = lower value
measured.property: viability, T/C (%)
Express it in %; write the number only.

Record summary for COc1cccc2c1C(=O)c1c(O)c3c(c(O)c1C2=O)CC(O)(C(=O)CO)CC3OC1CC(N)C(O)C(C)O1 (stereo not given) + COC1C(OC(N)=O)C(O)C(Oc2ccc3c(O)c(NC(=O)c4ccc(O)c(CC=C(C)C)c4)c(=O)oc3c2C)OC1(C)C : reported viability, T/C = 0.99

Record summary for COc1cc2cc(C(=O)CCC(=O)O)sc2cc1OC + Nc1ccc(C#CCN(C(=O)Cc2ncc(C(F)(F)F)cc2C(F)(F)F)c2ccc(F)cc2)nn1 : reported viability, T/C = 93.8

Continuing:
Record summary for CCCS(=O)(=O)Nc1ccc(F)c(C(=O)c2c[nH]c3ncc(-c4ccc(Cl)cc4)cc23)c1F + Cc1cccc(N(C)C(=O)C2C(O)CCN2c2nc(C)cc(C(F)(F)F)c2C#N)c1 : reported viability, T/C = 86.3

Record summary for COc1cccc2c1C(=O)c1c(O)c3c(c(O)c1C2=O)CC(O)(C(=O)CO)CC3OC1CC(N)C(O)C(C)O1 (stereo not given) + Nc1ccc(C#CCN(C(=O)Cc2ncc(C(F)(F)F)cc2C(F)(F)F)c2ccc(F)cc2)nn1 : reported viability, T/C = 1.29

Record summary for COc1cc2cc(C(=O)CCC(=O)O)sc2cc1OC + COC1C(OC(N)=O)C(O)C(Oc2ccc3c(O)c(NC(=O)c4ccc(O)c(CC=C(C)C)c4)c(=O)oc3c2C)OC1(C)C : reported viability, T/C = 103
